All figures here come from patent US7375083B2.

- testMethodNotes: Oral bioavailability of hydrocodone conjugates in rats, LC/MS/MS
- conditionSummary: male, Sprague-Dawley, rat, plasma, po, 5 mg/kg
measuredProperty: concentration at 0.5 h (µg/mL)

{"columns": ["compound", "recordedResult"],
 "data": [
  ["COc1ccc2c3c1O[C@H]1C(=O)CC[C@H]4[C@@H](C2)N(C)CC[C@]314 [Hydrocodone, reference compound]", 0.0743]
]}

----------
- testMethodNotes: Oral bioavailability of hydrocodone conjugates in rats, LC/MS/MS
- conditionSummary: male, Sprague-Dawley, rat, plasma, po, 2 mg/kg
measuredProperty: Cmax (ng/mL)

{"columns": ["molecule", "unit", "recordedResult"],
 "data": [
  ["COc1ccc2c3c1O[C@H]1C(=O)CC[C@H]4[C@@H](C2)N(C)CC[C@]314 [Hydrocodone, reference compound]", "ng/mL", 60.3]
]}

----------
- testMethodNotes: Oral bioavailability of hydrocodone conjugates in rats, LC/MS/MS
- conditionSummary: male, Sprague-Dawley, rat, plasma, po, 25 mg/kg

{"columns": ["compound", "concentration at 1 h"],
 "data": [
  ["COc1ccc2c3c1O[C@H]1C(=O)CC[C@H]4[C@@H](C2)N(C)CC[C@]314 [Hydrocodone, reference compound]", "86.2 ng/mL"]
]}

----------
% Cmax listing for selected molecules.
- testMethodNotes: Intranasal plasma levels of oxycodone conjugates in rats, ELISA
- conditionSummary: intranasal 2 mg/kg
measuredProperty: % Cmax (%)

{"columns": ["molecule", "recordedResult"],
 "data": [
  ["COc1ccc2c3c1O[C@H]1C(OC(=O)[C@@H](NC(=O)[C@H](CCC(=O)O)NC(=O)[C@@H]4CCCN4)C(C)C)=CC[C@@]4(OC(=O)[C@@H](NC(=O)[C@H](CCC(=O)O)NC(=O)[C@@H]5CCCN5)C(C)C)[C@@H](C2)N(C)CC[C@]314 [[Pro-Glu-Val]2-OC]", 46],
  ["COc1ccc2c3c1O[C@H]1C(OC(=O)[C@@H](NC(=O)[C@H](Cc4ccc(O)cc4)NC(=O)CN)C(C)C)=CC[C@@]4(OC(=O)[C@@H](NC(=O)[C@H](Cc5ccc(O)cc5)NC(=O)CN)C(C)C)[C@@H](C2)N(C)CC[C@]314 [[Gly-Tyr-Val]2-OC]", 54],
  ["CC[C@H](C)[C@H](N)C(=O)N[C@@H](Cc1ccc(O)cc1)C(=O)N[C@H](C(=O)OC1=CC[C@@]2(OC(=O)[C@@H](NC(=O)[C@H](Cc3ccc(O)cc3)NC(=O)[C@@H](N)[C@@H](C)CC)C(C)C)[C@H]3Cc4ccc(OC)c5c4[C@@]2(CCN3C)[C@H]1O5)C(C)C [[Ile-Tyr-Val]2-OC]", 4],
  ["COc1ccc2c3c1O[C@H]1C(OC(=O)[C@@H](NC(=O)[C@H](Cc4ccc(O)cc4)NC(=O)[C@@H](N)CC(C)C)C(C)C)=CC[C@@]4(OC(=O)[C@@H](NC(=O)[C@H](Cc5ccc(O)cc5)NC(=O)[C@@H](N)CC(C)C)C(C)C)[C@@H](C2)N(C)CC[C@]314 [[Leu-Tyr-Val]2-OC]", 5],
  ["COc1ccc2c3c1O[C@H]1C(OC(=O)[C@@H](NC(=O)CNC(=O)[C@@H](N)CO)C(C)C)=CC[C@@]4(OC(=O)[C@@H](NC(=O)CNC(=O)[C@@H](N)CO)C(C)C)[C@@H](C2)N(C)CC[C@]314 [[Ser-Gly-Val]2-OC]", 73],
  ["COc1ccc2c3c1O[C@H]1C(OC(=O)[C@@H](NC(=O)[C@H](Cc4ccc(O)cc4)NC(=O)[C@@H](N)CCC(=O)O)C(C)C)=CC[C@@]4(OC(=O)[C@@H](NC(=O)[C@H](Cc5ccc(O)cc5)NC(=O)[C@@H](N)CCC(=O)O)C(C)C)[C@@H](C2)N(C)CC[C@]314 [[Glu-Tyr-Val]2-OC]", 20],
  ["COc1ccc2c3c1O[C@H]1C(OC(=O)[C@@H](NC(=O)[C@@H]4CCCN4C(=O)[C@@H](N)CCC(=O)O)C(C)C)=CC[C@@]4(OC(=O)[C@@H](NC(=O)[C@@H]5CCCN5C(=O)[C@@H](N)CCC(=O)O)C(C)C)[C@@H](C2)N(C)CC[C@]314 [[Glu-Pro-Val]2-OC]", 65],
  ["COc1ccc2c3c1O[C@H]1C(OC(=O)[C@@H](NC(=O)[C@H](CCC(=O)O)NC(=O)CN)C(C)C)=CC[C@@]4(OC(=O)[C@@H](NC(=O)[C@H](CCC(=O)O)NC(=O)CN)C(C)C)[C@@H](C2)N(C)CC[C@]314 [[Gly-Glu-Val]2-OC]", 48]
]}
